Biological target: Left-right determination factor 2 (Homo sapiens) (UniProt O00292)
Sequence (O00292 whole entry, looked up): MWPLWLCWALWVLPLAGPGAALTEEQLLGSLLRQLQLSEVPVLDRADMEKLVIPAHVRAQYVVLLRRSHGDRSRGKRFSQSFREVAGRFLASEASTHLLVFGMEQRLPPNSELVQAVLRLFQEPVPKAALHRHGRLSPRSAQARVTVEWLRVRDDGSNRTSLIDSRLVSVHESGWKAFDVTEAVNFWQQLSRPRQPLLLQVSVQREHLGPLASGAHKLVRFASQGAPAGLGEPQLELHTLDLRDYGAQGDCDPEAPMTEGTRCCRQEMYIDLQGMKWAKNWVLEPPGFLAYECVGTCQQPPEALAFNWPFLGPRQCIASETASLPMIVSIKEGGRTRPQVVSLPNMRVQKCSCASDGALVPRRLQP
Assay: LEFTY2 binders on small-molecule microarrays, primary screen, biochemical, small-molecule microarray, 635 nm fluorescence scan (AID 1110)
Conditions: LEFTY2 binding, higher = more signal
Classify by measured composite z-score: t if it is equal to or exceeds 0.6, f if it is smaller.

Decide: is the reported value of composite z-score for `COC(=O)[C@@H]1CC[C@H](C)[C@@H](c2ccc(Br)cc2)N1C(=O)C(F)(F)F` equal to or greater than 0.6?
f

Decide: is the reported value of composite z-score for `CC(CCN1CCCc2nc(C)c(C)cc21)=NOC[C@@H](O)COCc1ccco1` equal to or greater than 0.6?
t

Decide: is the reported value of composite z-score for COC(=O)[C@H](C)NC(=O)CCC1CC(OC(=O)NCc2ccc3c(c2)OCO3)CC2(CCCC(COC(=O)NCCCN3CCCC3=O)O2)O1 (stereo not given in full) equal to or greater than 0.6?
t

Decide: is the reported value of composite z-score for `CC=CC1=C(CO)[C@H](O)[C@H]2O[C@H]2[C@@H]1O` equal to or greater than 0.6?
t

Decide: is the reported value of composite z-score for C[C@H]1CC[C@H]2C(=O)OC(COc3ccc(C(C)(C)C)cc3)CN2[C@@H]1c1ccc(Br)cc1 (stereo not given in full) equal to or greater than 0.6?
f

Decide: is the reported value of composite z-score for `C[C@@H](c1ccccc1)N1C(=O)[C@H]2[C@H]3[C@H](O)[C@H](O)CC(=NOC[C@@H](O)COCc4ccco4)[C@H]3CC[C@H]2C1=O` equal to or greater than 0.6?
t

Decide: is the reported value of composite z-score for `C[C@@H]1CC[C@H]2C(=O)O[C@@H](CN=[N+]=[N-])CN2[C@H]1c1ccc(Br)cc1` equal to or greater than 0.6?
t

Decide: is the reported value of composite z-score for CCOC(=O)[C@H](CC(C)C)NC(=O)CCC1CC(OC(=O)NCCc2ccc(F)cc2)CC2(CCCC(COC(=O)NCCCN3CCCC3=O)O2)O1 (stereo not given in full) equal to or greater than 0.6?
f

Decide: is the reported value of composite z-score for `CC(C)CON=C1C[C@@H](O)[C@@H](O)[C@@H]2[C@@H]3C(=O)N([C@@H](C)c4ccccc4)C(=O)[C@@H]3CC[C@@H]12` equal to or greater than 0.6?
f

Decide: is the reported value of composite z-score for `CC(C)=CCCC(C)=CCON=C1[C@H]2CCn3c(=O)n(-c4ccccc4)c(=O)n3[C@H]2[C@H](O)[C@@H]2O[C@H]12` equal to or greater than 0.6?
t

Decide: is the reported value of composite z-score for `CCN1C(=O)[C@H]2[C@H]3[C@H](O)[C@H](O)CC(=NNC(=O)OCc4ccccc4)[C@H]3CC[C@H]2C1=O` equal to or greater than 0.6?
f

Decide: is the reported value of composite z-score for CCOC(=O)[C@H](CC(C)C)NC(=O)CCC1CC(OC(=O)NCc2ccc3c(c2)OCO3)CC2(CCCC(COC(=O)NCCc3ccc(Cl)cc3)O2)O1 (stereo not given in full) equal to or greater than 0.6?
f

Decide: is the reported value of composite z-score for `COC(=O)[C@@H]1CC[C@H](C)[C@@H](c2ccc(C)cc2)N1C(=O)c1ccc(C=NO[C@@H](C)c2cc(-c3c(C)cc(C)cc3C)no2)cc1` equal to or greater than 0.6?
f

Decide: is the reported value of composite z-score for COCCNC(=O)OCC1CCCC2(CC(OC(=O)NCc3cccc4ccccc34)CC(CCC(=O)N[C@@H](C)C(=O)OC)O2)O1 (stereo not given in full) equal to or greater than 0.6?
t

###

Assay: binders of probe aFSTL3 on microarray, primary screen, stem cell growth factor project, biochemical, small-molecule microarray, fluorescence 635/667 (AID 1064);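 further: measures binding of the biotinylated anti-FSTL3 antibody to printed compounds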
Conditions: higher = more signal
Hi there, I'd appreciate the recorded composite z-score for every entry that follows.

Report composite z-score for C=CCOCC1CN2[C@@H](CC[C@@H](C)[C@@H]2c2ccc(Br)cc2)C(=O)O1 (some centres not stated) please.
-0.155

Report composite z-score for `COc1ccc(COC(=O)NN=C2C[C@@H](O)[C@@H](O)[C@@H]3[C@@H]4C(=O)N(C[C@@H]5CCCO5)C(=O)[C@@H]4CC[C@H]23)cc1` please.
0.467

Report composite z-score for `COc1cccc([C@H]2Oc3ccc(OC)cc3C(=NO[C@@H](C)c3cc(-c4c(C)cc(C)cc4C)no3)[C@@H]2O)c1` please.
2.15

Report composite z-score for CCOC(=O)[C@H](Cc1ccccc1)NC(=O)CCC1CC(OC(=O)NCc2cccc3ccccc23)CC2(CCCC(COC(=O)NCCc3ccccc3OC)O2)O1 (some centres not stated) please.
-0.568

Report composite z-score for `CC1(C)O[C@H]2O[C@H]([C@H](O)CON=C3[C@H]4CCn5c(=O)n(-c6ccccc6)c(=O)n5[C@H]4[C@H](O)[C@@H]4O[C@H]34)[C@H](O)[C@H]2O1` please.
-0.278

Report composite z-score for `CC(C)=CCCC(C)=CCON=C1[C@H]2CCn3c(=O)n(-c4ccccc4)c(=O)n3[C@H]2[C@H](O)[C@@H]2O[C@H]12` please.
-0.279

Report composite z-score for `O=C1[C@H]2[C@H]3[C@H](O)[C@H](O)CC(=NOCc4ccccc4)[C@@H]3CC[C@H]2C(=O)N1c1cccc(Oc2ccccc2)c1` please.
-0.556

###

Hi there, I'd appreciate the recorded composite z-score for every entry that follows.
Experiment: binders of probe aFGF2 on microarray, primary screen, stem cell growth factor project, biochemical, small-molecule microarray, fluorescence 635/667 (AID 1067);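 further: measures binding of biotinylated aFGF2 protein to printed compounds on slides; z-score merges feature fluorescence and signal-to-noise across triplicate slides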
Conditions: higher = more signal
Lab note: jot down the number only; don't add units.

Report composite z-score for `CCO[C@H](c1cc(OC)cc([N+](=O)[O-])c1OC)[C@H](C)[C@@H](OC)[C@H](C)C=CCC(=O)OC` please.
-0.0241

Report composite z-score for `CCN1C(=O)[C@H]2[C@H]3[C@H](O)[C@H](O)CC(=NNC(=O)OCc4ccccc4)[C@H]3CC[C@H]2C1=O` please.
0.0572

Report composite z-score for `CC(CCN1CCCCc2nc(C)c(C)cc21)=NOC[C@@H](O)[C@H]1O[C@@H]2OC(C)(C)O[C@@H]2[C@H]1O` please.
-0.138

Report composite z-score for `C#CCCCON=C1C[C@@H](O)[C@@H](O)[C@@H]2[C@@H]3C(=O)N([C@@H](C)c4ccccc4)C(=O)[C@@H]3CC[C@@H]12` please.
-0.17

Report composite z-score for `COC(=O)CC=C1c2ccccc2[C@H](OC)[C@H]1C` please.
-0.0044

Report composite z-score for `CC(C)CON=C1C[C@@H](O)[C@@H](O)[C@@H]2[C@@H]3C(=O)N(C(C)(C)C)C(=O)[C@@H]3CC[C@@H]12` please.
-0.243

Report composite z-score for `COc1ccc(COC(=O)NN=C2C[C@@H](O)[C@@H](O)[C@@H]3[C@@H]4C(=O)N(C5CCCCC5)C(=O)[C@@H]4CC[C@@H]23)cc1` please.
-0.0883

Report composite z-score for `COC(=O)[C@H](C)NC(=O)CC=C[C@@H](C)[C@@H]1C=C[C@H](O)[C@@H](CO)O1` please.
-0.134

Report composite z-score for CCCCOC(OCCCC)C(O)CSc1ccc2ccccc2c1 (stereo unspecified) please.
-0.0599

Report composite z-score for `CCOC(=O)CCN1C(=O)[C@H]2[C@H]3[C@H](O)[C@H](O)CC(=NOCC=C(C)CCC=C(C)C)[C@H]3CC[C@H]2C1=O` please.
-0.0734

Report composite z-score for `COC(=O)CC=C[C@@H](C)[C@@H](C=NOC[C@@H](O)COCc1ccco1)NS(=O)(=O)c1ccc(C)cc1` please.
-0.162

Report composite z-score for `CO[C@H]1COC(=O)CCC[C@H](C)[C@H](OC)COC(=O)CC=C[C@@H]1C` please.
-0.142

Report composite z-score for `CON=C1c2cc(OC)ccc2O[C@H](c2cccc(OC)c2)[C@H]1O` please.
-0.0473

Report composite z-score for CCOC(=O)[C@H](Cc1ccccc1)NC(=O)CCC1CC(OC(=O)NCCc2ccc(F)cc2)CC2(CCCC(COC(=O)NCCC(C)C)O2)O1 (stereo partly specified) please.
-0.0296

Report composite z-score for `CC(CCC(=O)OC[C@H]1O[C@H](C#Cc2ccccc2)C=C[C@@H]1Oc1ccc(C)cc1)=NO[C@@H](C)c1cc(-c2c(C)cc(C)cc2C)no1` please.
-0.144

Report composite z-score for `COC(=O)[C@@H]1CC[C@H](C)[C@@H](c2ccc(Br)cc2)N1C[C@H](O)CN=[N+]=[N-]` please.
-0.0925
